Cited source for all entries: ChEMBL document CHEMBL1125068

# Tested on: H9
# assayRemarks: In vitro inhibitory activity against HIV-1 in H9 cells
# Assay type: functional, cell-based
# conditionContext: Homo sapiens
Listed here: items and their measured IC50.
Entry rule: numbers only, all in nM.

INSERT INTO results (smilesstr, quantitymeasured, unitabbreviation, val) VALUES
  ('CC(C)[C@H](NC(=O)OCc1ccccc1)C(=O)N[C@@H](Cc1ccccc1)[C@H](O)[C@@H](O)[C@H](Cc1ccccc1)NC(=O)[C@H](NC(=O)OCc1ccccc1)C(C)C', 'IC50', 'nM', 60),
  ('CC(C)[C@H](NC(=O)OCc1ccccc1)C(=O)N[C@@H](Cc1ccccc1)[C@@H](O)[C@@H](O)[C@H](Cc1ccccc1)NC(=O)[C@H](NC(=O)OCc1ccccc1)C(C)C', 'IC50', 'nM', 20);

Now let's try a different one.
IC50 reading for CC(C)[C@H](NC(=O)OCc1ccccc1)C(=O)N[C@@H](Cc1ccccc1)[C@@H](O)[C@H](O)[C@H](Cc1ccccc1)NC(=O)[C@H](NC(=O)OCc1ccccc1)C(C)C : 20
